Target: T1, Cren7 K24Q (UniProt C3NHU3 1-60, K24Q)
T1 sequence: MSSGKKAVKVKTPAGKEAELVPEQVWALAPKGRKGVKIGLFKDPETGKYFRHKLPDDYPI
Test: BLI; BLI: 20 mM Tris-HCl pH 6.8, 100 mM KCl, 1 mM EDTA, 0.05% Tween-20, 30°C; pull-down: 10 mM HEPES pH 7.6, 100 mM KCl, 2.5 mM MgCl2, 0.1 mg/mL BSA, room temperature
Conditions: protein: recombinant; label: 5' biotin on strand 1; blunt
Parameter measured: Kd (nM)
Give the value, in units of nM, as a plain number.

**Query** Retrieve Kd measured for D30 (dsDNA) DNA 1: TAGAGCCCTAGTCTTCCAAACTAGCTACGC DNA 2: GCGTAGCTAGTTTGGAAGACTAGGGCTCTA and print it.
**Result** 217

Data provenance is paper PMC8927968.
